# system name: T1, Anti-PSMA Fab (SEQ ID NOs: 19, 20)
# T1 construct: Biotinylated Fab captured on neutravidin coated plates in the phage ELISA; also called 006 PSMA Fab
# measurement protocol: phage binding ELISA on PSMA Fab coated plates; competitor: PSMA antigen
So basically: is Anti-PSMA Fab signal in the presence of PSMA under 0.08? Then YES. Not under? Then NO.

Use these answered entries as a reference point.
| binder | group label |
| --- | --- |
| HVKLCKPAWMCQGL [Phage-1769] | NO |
| DLRLCKPAWMCYFI [Phage-1773] | YES |
| FEKLCVPKWMCEGI (also called Peptide-220) [Phage-1770] | YES |

Asked: Regarding HCEFHDYQSCDVLY [Phage-1761] , kindly confirm whether its Anti-PSMA Fab signal in the presence of PSMA is beneath 0.08.
Given back: NO

Asked: Say whether its Anti-PSMA Fab signal in the presence of PSMA is strictly beneath 0.08. Entry: WEKLCTPAWMCVGF [Phage-1764]
Given back: NO

Asked: Does the reported Anti-PSMA Fab signal in the presence of PSMA of the following binder sit strictly below 0.08? LEKLCIPAWMCEWL [Phage-1765]
Given back: NO

Asked: Lab note: confirm whether the reported Anti-PSMA Fab signal in the presence of PSMA for this binder is below 0.08, equality not counting. binder: FVPLCKPAWMCSFV [Phage-1768]
Given back: NO

Asked: Hello, is Anti-PSMA Fab signal in the presence of PSMA of the following binder strictly smaller than 0.08? HCKFHDYHSWYVCY [Phage-1762]
Given back: NO

Asked: Hello, I'm reviewing records and need to know if Anti-PSMA Fab signal in the presence of PSMA of LCEWWTSHVDAWCA [Phage-1763] is below 0.08. Could you check?
Given back: NO

Asked: Please indicate whether the reported Anti-PSMA Fab signal in the presence of PSMA of VGKLCVPEWMCVGL [Phage-1767] is strictly below 0.08.
Given back: YES

Asked: For this binder, is Anti-PSMA Fab signal in the presence of PSMA lower than 0.08? IDKLCIPFWMCENL [Phage-1771]
Given back: YES

Asked: Say whether its Anti-PSMA Fab signal in the presence of PSMA is strictly beneath 0.08. Entry: VLKWCRPAWMCEVL [Phage-1766]
Given back: NO

Asked: Could you please tell me whether Anti-PSMA Fab signal in the presence of PSMA recorded for FEKWCTPPWMCSLF [Phage-1772] is less than 0.08?
Given back: NO

Asked: # TODO verify Anti-PSMA Fab signal in the presence of PSMA < 0.08 strictly for this binder: LCQWYPKFHWMDCD (also called Peptide-210) [Phage-1760]
Given back: YES
